Assay: Octanol-water partition coefficient, log P of the compound
Format: physicochemical
ENDPOINT_LABEL: logP

Entry "CO[C@H]1/C=C/O[C@@]2(C)Oc3c(C)c(O)c4c(O)c(c(CNCCCn5ccnc5)c(O)c4c3C2=O)NC(=O)/C(C)=C\C=C\[C@H](C)[C@H](O)[C@@H](C)[C@@H](O)[C@@H](C)[C@H](OC(C)=O)[C@@H]1C" : reported logP = ? 1.78

Others:
logP for "CO[C@H]1/C=C/O[C@@]2(C)Oc3c(C)c(O)c4c(O)c(c(CNCCCN5CCN(CCCNCc6c7c(O)c8c(O)c(C)c9c(c8c6O)C(=O)[C@@](C)(O/C=C/[C@H](OC)[C@@H](C)[C@@H](OC(C)=O)[C@H](C)[C@H](O)[C@H](C)[C@@H](O)[C@@H](C)/C=C/C=C(/C)C(=O)N7)O9)CC5)c(O)c4c3C2=O)NC(=O)/C(C)=C\C=C\[C@H](C)[C@H](O)[C@@H](C)[C@@H](O)[C@@H](C)[C@H](OC(C)=O)[C@@H]1C" ? 3.83

###

Property: log10(MIC); scope: individual compounds
Tested on: Staphylococcus aureus
Assay: Antibacterial activity against Staphylococcus aureus ATCC 6538 after 18 hrs by serial microdilution method
Format: functional
Settings: ATCC 6538, 18 h
log10 MIC, µg/mL

Observe how each entry below is paired with its result.
Tell me the measured log10(MIC) of "CO[C@H]1/C=C/O[C@@]2(C)Oc3c(C)c(O)c4c(O)c(c(CNCCCn5ccnc5)c(O)c4c3C2=O)NC(=O)/C(C)=C\C=C\[C@H](C)[C@H](O)[C@@H](C)[C@@H](O)[C@@H](C)[C@H](OC(C)=O)[C@@H]1C" , please. -0.30

Consider the compound "CO[C@H]1/C=C/O[C@@]2(C)Oc3c(C)c(O)c4c(O)c(c(CNCCN5CCCC5)c(O)c4c3C2=O)NC(=O)/C(C)=C\C=C\[C@H](C)[C@H](O)[C@@H](C)[C@@H](O)[C@@H](C)[C@H](OC(C)=O)[C@@H]1C" and give its measured log10(MIC). 0.00

I have this compound here, "CO[C@H]1/C=C/O[C@@]2(C)Oc3c(C)c(O)c4c(O)c(c(CNC5CCN(Cc6ccccc6)CC5)c(O)c4c3C2=O)NC(=O)/C(C)=C\C=C\[C@H](C)[C@H](O)[C@@H](C)[C@@H](O)[C@@H](C)[C@H](OC(C)=O)[C@@H]1C" , and I need its recorded log10(MIC). -0.60

Could you now consider this next compound?
Suppose we examine the compound "CO[C@H]1/C=C/O[C@@]2(C)Oc3c(C)c(O)c4c(O)c(c(CNCCN(C)C)c(O)c4c3C2=O)NC(=O)/C(C)=C\C=C\[C@H](C)[C@H](O)[C@@H](C)[C@@H](O)[C@@H](C)[C@H](OC(C)=O)[C@@H]1C" ; what log10(MIC) value has been reported? 0.00

###

Experiment: Solubility in water at pH 7 and 25 degC by UV-vis spectrophotometry
Format: physicochemical
ENDPOINT_LABEL: solubility (µg/mL)
Just the number please, in µg/mL, no unit attached.

Which solubility value belongs to "CO[C@H]1/C=C/O[C@@]2(C)Oc3c(C)c(O)c4c(O)c(c(CNCCN(C)C)c(O)c4c3C2=O)NC(=O)/C(C)=C\C=C\[C@H](C)[C@H](O)[C@@H](C)[C@@H](O)[C@@H](C)[C@H](OC(C)=O)[C@@H]1C" ? 320

Need solubility of "CO[C@H]1/C=C/O[C@@]2(C)Oc3c(C)c(O)c4c(O)c(c(C=O)c(O)c4c3C2=O)NC(=O)/C(C)=C\C=C\[C@H](C)[C@H](O)[C@@H](C)[C@@H](O)[C@@H](C)[C@H](OC(C)=O)[C@@H]1C" , thanks. 100

Given the entry "CO[C@H]1/C=C/O[C@@]2(C)Oc3c(C)c(O)c4c(O)c(c(CNCCN5CCCC5)c(O)c4c3C2=O)NC(=O)/C(C)=C\C=C\[C@H](C)[C@H](O)[C@@H](C)[C@@H](O)[C@@H](C)[C@H](OC(C)=O)[C@@H]1C" , report its measured solubility. 240

# ---- query molecule ----
Which solubility value is on record for "CO[C@H]1/C=C/O[C@@]2(C)Oc3c(C)c(O)c4c(O)c(c(CNCCCn5ccnc5)c(O)c4c3C2=O)NC(=O)/C(C)=C\C=C\[C@H](C)[C@H](O)[C@@H](C)[C@@H](O)[C@@H](C)[C@H](OC(C)=O)[C@@H]1C" ? 330
